Target: Cyclin-dependent kinase 2/cyclin E1 (Homo sapiens)
Experiment: Inhibition of against CDK2/cyclinE1 (unknown origin) using Ulight-CFFKNIVTPRTPPPSQGK-amide substrate and ATP incubated for 15 mins by fluorescence based assay
QUANTITY_MEASURED: pIC50
# pIC50 is unitless: minus log10 of the molar concentration; print number only

Cyclin-dependent kinase 2/cyclin E1 (Homo sapiens) assay, compound `O=C1Nc2ccc(OC(F)(F)F)cc2/C1=C1/Nc2cc(F)c(F)cc2/C1=N\O` , recorded pIC50 = 5.39

Cyclin-dependent kinase 2/cyclin E1 (Homo sapiens) assay, compound `O=C1Nc2ccc(Cl)cc2/C1=C1/Nc2cc(F)c(F)cc2/C1=N\O` , recorded pIC50 = 5.19

Cyclin-dependent kinase 2/cyclin E1 (Homo sapiens) assay, compound `O=Nc1c(-c2c(O)[nH]c3ccccc23)[nH]c2ccccc12` , recorded pIC50 = 6.15

Cyclin-dependent kinase 2/cyclin E1 (Homo sapiens) assay, compound `O=C1Nc2ccc(F)cc2/C1=C1/Nc2cc(F)c(F)cc2/C1=N\O` , recorded pIC50 = 5.57

Cyclin-dependent kinase 2/cyclin E1 (Homo sapiens) assay, compound `O=C1Nc2ccc([N+](=O)[O-])cc2/C1=C1/Nc2cc(F)c(F)cc2/C1=N\O` , recorded pIC50 = 6.00

Cyclin-dependent kinase 2/cyclin E1 (Homo sapiens) assay, compound `COc1ccc2c(c1)/C(=C1/Nc3cc(F)c(F)cc3/C1=N\OCCO)C(=O)N2` , recorded pIC50 = 6.40

Cyclin-dependent kinase 2/cyclin E1 (Homo sapiens) assay, compound `COc1ccc2c(c1)/C(=C1/Nc3cc(F)c(F)cc3/C1=N\O)C(=O)N2` , recorded pIC50 = 5.96

====

Target: CDK9/cyclin T1 (Homo sapiens, UniProt P50750)
Sequence (O60563 whole entry): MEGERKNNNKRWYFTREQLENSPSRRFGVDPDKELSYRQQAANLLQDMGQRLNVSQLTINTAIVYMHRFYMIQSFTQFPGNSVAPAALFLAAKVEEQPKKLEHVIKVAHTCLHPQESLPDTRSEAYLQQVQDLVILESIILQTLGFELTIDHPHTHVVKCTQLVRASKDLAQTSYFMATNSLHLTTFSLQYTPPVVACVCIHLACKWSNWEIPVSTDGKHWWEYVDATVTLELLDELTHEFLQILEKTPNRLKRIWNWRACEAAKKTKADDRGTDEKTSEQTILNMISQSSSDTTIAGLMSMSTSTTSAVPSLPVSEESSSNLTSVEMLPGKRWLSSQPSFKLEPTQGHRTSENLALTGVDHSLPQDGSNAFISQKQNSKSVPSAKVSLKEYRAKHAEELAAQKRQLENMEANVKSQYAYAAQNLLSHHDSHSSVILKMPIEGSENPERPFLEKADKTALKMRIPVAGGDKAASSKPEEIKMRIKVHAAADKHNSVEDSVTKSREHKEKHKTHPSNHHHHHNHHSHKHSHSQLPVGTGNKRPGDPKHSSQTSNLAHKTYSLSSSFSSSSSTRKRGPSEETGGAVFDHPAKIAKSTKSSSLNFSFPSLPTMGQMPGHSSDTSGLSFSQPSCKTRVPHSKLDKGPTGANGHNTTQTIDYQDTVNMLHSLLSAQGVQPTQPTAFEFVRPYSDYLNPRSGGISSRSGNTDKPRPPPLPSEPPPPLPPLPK
Sequence (P50750 whole entry): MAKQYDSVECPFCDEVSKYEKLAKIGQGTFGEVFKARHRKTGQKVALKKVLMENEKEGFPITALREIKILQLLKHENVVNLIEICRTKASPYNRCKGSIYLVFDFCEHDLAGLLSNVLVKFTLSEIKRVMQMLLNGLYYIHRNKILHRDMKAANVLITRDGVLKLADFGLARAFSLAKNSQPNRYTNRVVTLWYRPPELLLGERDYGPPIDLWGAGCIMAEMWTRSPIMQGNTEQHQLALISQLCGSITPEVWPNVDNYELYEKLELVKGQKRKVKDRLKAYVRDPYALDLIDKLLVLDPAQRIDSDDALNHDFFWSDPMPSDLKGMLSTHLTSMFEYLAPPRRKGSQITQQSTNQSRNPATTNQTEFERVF
Assay: Inhibition of against CDK9/cyclinT1 (unknown origin) using Ulight-CFFKNIVTPRTPPPSQGK-amide substrate and ATP incubated for 90 mins by fluorescence based assay
Define the label as yes when IC50 is strictly less than 2000 nM and as no in all remaining cases.

Hello, I'm reviewing records and need to know if IC50 of `O=C1Nc2ccc([N+](=O)[O-])cc2/C1=C1/Nc2cc(F)c(F)cc2/C1=N\O` is below 2000 nM. Could you check?
yes

Hello, I'm reviewing records and need to know if IC50 of `O=Nc1c(-c2c(O)[nH]c3ccccc23)[nH]c2ccccc12` is below 2000 nM. Could you check?
no

Hello, I'm reviewing records and need to know if IC50 of `O=C1Nc2ccc(F)cc2/C1=C1/Nc2cc(F)c(F)cc2/C1=N\O` is below 2000 nM. Could you check?
yes

Hello, I'm reviewing records and need to know if IC50 of `O=C1Nc2ccc(Cl)cc2/C1=C1/Nc2cc(F)c(F)cc2/C1=N\O` is below 2000 nM. Could you check?
yes

Hello, I'm reviewing records and need to know if IC50 of `COc1ccc2c(c1)/C(=C1/Nc3cc(F)c(F)cc3/C1=N\OCCO)C(=O)N2` is below 2000 nM. Could you check?
yes

Hello, I'm reviewing records and need to know if IC50 of `COc1ccc2c(c1)/C(=C1/Nc3cc(F)c(F)cc3/C1=N\O)C(=O)N2` is below 2000 nM. Could you check?
yes

Hello, I'm reviewing records and need to know if IC50 of `O=C1Nc2ccc(OC(F)(F)F)cc2/C1=C1/Nc2cc(F)c(F)cc2/C1=N\O` is below 2000 nM. Could you check?
no

====

For each record, write down the corresponding IC50.
Assay: Cytotoxicity against human […] cells assessed as inhibition of cell growth by MTT assay
Assay type: functional, cell-based
Settings: Homo sapiens; read-out: IC50
Give the number; µM is assumed, so skip it.

Memo: `O=C1Nc2ccccc2/C1=C1/Nc2cc(F)c(F)cc2/C1=N\O` , reported IC50: 3.04

Memo: `CN1C(=O)/C(=C2\Nc3cc(F)c(F)cc3\C2=N/O)c2ccccc21` , reported IC50: 2.77

Memo: `O=C1Nc2ccc([N+](=O)[O-])cc2/C1=C1/Nc2cc(F)c(F)cc2/C1=N\O` , reported IC50: 2.21

Memo: `O=C1Nc2ccc(F)cc2/C1=C1/Nc2cc(F)c(F)cc2/C1=N\O` , reported IC50: 2.72

Memo: `Nc1ccc2c(c1)/C(=C1/Nc3cc(F)c(F)cc3/C1=N\O)C(=O)N2` , reported IC50: 2.54

====

Assay: Cytotoxicity against human BGC823 cells assessed as inhibition of cell growth by MTT assay
Type: functional, cell-based, BGC-823
Details: Homo sapiens, BGC-823; read-out: IC50
For each record, write down the corresponding IC50.
Quick note: number first, unit second.

Memo: `CN1C(=O)/C(=C2\Nc3cc(F)c(F)cc3\C2=N/O)c2ccccc21` , reported IC50: 9.2 µM

Memo: `O=C1Nc2ccccc2/C1=C1/Nc2cc(F)c(F)cc2/C1=N\O` , reported IC50: 6.45 µM

Memo: `O=C1Nc2ccc(F)cc2/C1=C1/Nc2cc(F)c(F)cc2/C1=N\O` , reported IC50: 9.65 µM

Memo: `O=C1Nc2ccc([N+](=O)[O-])cc2/C1=C1/Nc2cc(F)c(F)cc2/C1=N\O` , reported IC50: 6.14 µM

====

For each record, write down the corresponding inhibition.
Target: CDK9/cyclin T1 (Homo sapiens) (UniProt O60563+P50750)
Assay: Inhibition of against CDK9/cyclinT1 (unknown origin) at 10 uM using Ulight-CFFKNIVTPRTPPPSQGK-amide substrate and ATP incubated for 90 mins by fluorescence based assay
Format: protein-complex assay
Give the number; % is assumed, so skip it.

Memo: `COc1ccc2c(c1)/C(=C1/Nc3cc(F)c(F)cc3/C1=N\OCCO)C(=O)N2` , reported inhibition: 84

Memo: `CN1C(=O)/C(=C2\Nc3cc(F)c(F)cc3\C2=N/O)c2ccccc21` , reported inhibition: 52

Memo: `Nc1ccc2c(c1)/C(=C1/Nc3cc(F)c(F)cc3/C1=N\O)C(=O)N2` , reported inhibition: 60

Memo: `O=C1Nc2ccc([N+](=O)[O-])cc2/C1=C1/Nc2cc(F)c(F)cc2/C1=N\O` , reported inhibition: 89

Memo: `O=C1Nc2ccc(OC(F)(F)F)cc2/C1=C1/Nc2cc(F)c(F)cc2/C1=N\O` , reported inhibition: 74

Memo: `O=C1Nc2ccc(F)cc2/C1=C1/Nc2cc(F)c(F)cc2/C1=N\O` , reported inhibition: 85

Memo: `O=C1Nc2ccccc2/C1=C1/Nc2cc(F)c(F)cc2/C1=N\O` , reported inhibition: 67

Memo: `O=Nc1c(-c2c(O)[nH]c3ccccc23)[nH]c2ccccc12` , reported inhibition: 70

Memo: `Cc1ccc2c(c1)/C(=C1/Nc3cc(F)c(F)cc3/C1=N\O)C(=O)N2` , reported inhibition: 65

Memo: `O=C1Nc2cc(Cl)ccc2/C1=C1/Nc2cc(F)c(F)cc2/C1=N\O` , reported inhibition: 59

Memo: `COc1ccc2c(c1)/C(=C1/Nc3cc(F)c(F)cc3/C1=N\O)C(=O)N2` , reported inhibition: 81

Memo: `O=C1Nc2ccc(Cl)cc2/C1=C1/Nc2cc(F)c(F)cc2/C1=N\O` , reported inhibition: 86

These data points were gathered from ChEMBL document CHEMBL3421588.
